Tested on: HCT-116
Assay Overview: NCI tumour cell line growth inhibition, 48 h
Activity calls are given as the source filed them. Cut-off read from the data, not from the text of the source: active = GI50 up to about 1.1 µM and inactive = higher.
Entries and their GI50 values follow.

Worked set:
INSERT INTO results (molecule, recorded_metric, result_value) VALUES
  ('COc1cc2c(cc1O)NC(=S)[C@@H]1CCCN1C2=O', 'GI50', '> 100 µM (inactive)'),
  ('COc1c2c(c(OC)c3c1c(=O)c1ccccc1n3C)OCO2', 'GI50', '6.15 µM (inactive)'),
  ('CCCN(C(=O)c1ccccc1)C(C#N)c1ccc(C(C#N)N(CCC)C(=O)c2ccccc2)cc1 (stereo not given)', 'GI50', '> 100 µM (inactive)'),
  ('CCCN(CCCc1ccccc1)CCc1ccc2[nH]c(=S)[nH]c2c1', 'GI50', '13.1 µM (inactive)'),
  ('COc1ccc2c3c(n(Cc4ccccc4)c(=O)c2c1)-c1cc(OC)c(OC)cc1C3C (stereo not given)', 'GI50', '14.7 µM (inactive)');

Query: Hello, please tell me recorded GI50 for this one: CC1=NN(C(=O)c2ccc(Cl)cc2)C(=O)/C1=C/c1ccc(Cl)cc1
Result: > 100 µM (inactive)

Query: Output GI50 of COCCNC(=O)C1C(=O)N(CCOC)C(=O)/C1=N/N (stereo not given)
Result: > 100 µM (inactive)

Query: Report GI50, nothing else, for this molecule: S=c1[nH]c2ccc(Br)cc2c(=S)n1-c1ccccc1
Result: 8.75 µM (inactive)

Query: Assign GI50 to the following record: O=C1c2ccccc2-c2cc3ccccc3c(=O)n21
Result: > 100 µM (inactive)

Query: Please report GI50 for the following molecule: O=C(OCC1OC(c2nn[nH]n2)C(OC(=O)c2ccccc2)C1OC(=O)c1ccccc1)c1ccccc1 (stereo not given)
Result: > 100 µM (inactive)
